# EXPERIMENT SUMMARY: Peptide solubility by visual inspection
# Type: physicochemical
# STATED CONDITIONS: 3 mg/mL, acetate salt, non-filtered; 250 mM D-Mannitol and 25 mM sodium phosphate, pH 7.0
Where no end group is shown, it is not given here.

| SUBSTANCE | Visual inspection after 60 min pH 7 |
| --- | --- |
| AGELELQFRRVKSKYPEGTK-OH [peptide 207] | tread + |
| STGGAYESYKFIPALEAAVK-OH [compound 71] | tread + |
| GSDPKKLVLNIKYTRPGDSL-OH [peptide 217] | particles + |
| KEDFLGSLVKEIPPRLLYAK-OH [peptide 222] | tread + |
| WGAIWRIDTPDKLTGPFTVR-OH [peptide 211] | particles + |
